Biological target: CaM (Bos taurus, UniProt P62157)
Construct: made in house; host or cells: E. coli BL21 (DE3)
Assay: Pull-down assay with immobilized protein and LSM libraries
Format: binding, bovine
Settings: H12 library; 1:2 stoichiometry assumed; read-out: Surface mapping KD (apparent)
measurement.type: Kd (µM)

Solved cases below.
>  <compound>
N=C(N)NCCC[C@@H](CC(=O)N[C@H]1CCC[C@@H]1C(=O)N[C@H]1CCC[C@@H]1C(=O)N[C@H](CC(=O)N[C@H]1CCC[C@@H]1C(=O)N[C@H]1CCC[C@@H]1C(N)=O)Cc1c[nH]c2ccccc12)NC(=O)[C@H]1CCC[C@@H]1NC(=O)[C@H]1CCC[C@@H]1N

>  <target.system>
CaM (Bos taurus, UniProt P62157)

>  <Kd (µM)>
19

$$$$
>  <compound>
CC(C)C[C@@H](CC(=O)N[C@H]1CCC[C@@H]1C(=O)N[C@H]1CCC[C@@H]1C(=O)N[C@H](CC(=O)N[C@H]1CCC[C@@H]1C(=O)N[C@H]1CCC[C@@H]1C(N)=O)Cc1ccccc1)NC(=O)[C@H]1CCC[C@@H]1NC(=O)[C@H]1CCC[C@@H]1N

>  <target.system>
CaM (Bos taurus, UniProt P62157)

>  <Kd (µM)>
28

$$$$
>  <compound>
N=C(N)NCCC[C@@H](CC(=O)N[C@H]1CCC[C@@H]1C(=O)N[C@H]1CCC[C@@H]1C(N)=O)NC(=O)[C@H]1CCC[C@@H]1NC(=O)[C@H]1CCC[C@@H]1NC(=O)C[C@H](Cc1ccccc1)NC(=O)[C@H]1CCC[C@@H]1NC(=O)[C@H]1CCC[C@@H]1N

>  <target.system>
CaM (Bos taurus, UniProt P62157)

>  <Kd (µM)>
125

$$$$

a. CC(C)[C@@H](CC(=O)N[C@H]1CCC[C@@H]1C(=O)N[C@H]1CCC[C@@H]1C(=O)N[C@H](CC(=O)N[C@H]1CCC[C@@H]1C(=O)N[C@H]1CCC[C@@H]1C(N)=O)Cc1ccc(O)cc1)NC(=O)[C@H]1CCC[C@@H]1NC(=O)[C@H]1CCC[C@@H]1N
b. NC(=O)[C@H]1CCC[C@@H]1NC(=O)[C@H]1CCC[C@@H]1NC(=O)C[C@H](Cc1ccc(O)cc1)NC(=O)[C@H]1CCC[C@@H]1NC(=O)[C@H]1CCC[C@@H]1NC(=O)C[C@H](Cc1c[nH]c2ccccc12)NC(=O)[C@H]1CCC[C@@H]1NC(=O)[C@H]1CCC[C@@H]1N
Prompt: Decide: a or b , by lowest recorded Kd. Could you answer with the label of the item you picked?
Response: b

P. CC(C)C[C@@H](CC(=O)N[C@H]1CCC[C@@H]1C(=O)N[C@H]1CCC[C@@H]1C(N)=O)NC(=O)[C@H]1CCC[C@@H]1NC(=O)[C@H]1CCC[C@@H]1NC(=O)C[C@H](CO)NC(=O)[C@H]1CCC[C@@H]1NC(=O)[C@H]1CCC[C@@H]1N
Q. CC(C)C[C@@H](CC(=O)N[C@H]1CCC[C@@H]1C(=O)N[C@H]1CCC[C@@H]1C(N)=O)NC(=O)[C@H]1CCC[C@@H]1NC(=O)[C@H]1CCC[C@@H]1NC(=O)C[C@H](Cc1c[nH]c2ccccc12)NC(=O)[C@H]1CCC[C@@H]1NC(=O)[C@H]1CCC[C@@H]1N
Prompt: Decide: P or Q , by lowest recorded Kd. Could you answer with the label of the item you picked?
Response: Q
